biological target: Carbonic anhydrase 2 (Homo sapiens, UniProt P00918)
pKd: −log10 of the molar value.
measure: pKd

Can you share its pKd? I mean this compound: `CC1(C)O[C@H]2[C@@H]3OCO[C@@H]3CO[C@@]2(CNS(N)(=O)=O)O1`
< 4.24

---

target: Carbonic anhydrase 2 (Homo sapiens)
measure: Kd

Can you share its Kd? I mean this compound: `CC1(C)O[C@H]2[C@@H]3OCO[C@@H]3CO[C@@]2(CNS(N)(=O)=O)O1`
> 57 µM

---

assay: Dissociation constant, pKa of the compound; assay type: physicochemical
measure: pKa
Respond numerically, and do not add a unit to the figure.

Can you share its pKa? I mean this molecule: `CC1(C)O[C@@H]2[C@@H](CO[C@@]3(CNS(N)(=O)=O)OC(C)(C)O[C@@H]23)O1`
10.7

Can you share its pKa? I mean this molecule: CC1(C)O[C@@H]2[C@@H](CO[C@@]3(COS(N)(=O)=O)OC(C)(C)O[C@@H]23)O1 [TOPIRAMATE]
8.7

Provenance of the data: ChEMBL document CHEMBL1144768
